Source of measurements: paper PMC3176174

- System: TIB-202 cell line
- method description: cells
- Type: cell-based, human
- stated conditions: Table S1, TIB-202, 96 hours
pIC50: −log10 of the molar value.
Listed below: pIC50 values for each entry.
experimental readout: pIC50

molecule | experimental readout | censoring operator | readout number
O=C1[O][Pt]2([NH][C@@H]3CCCC[C@H]3[NH]2)[O]C1=O | pIC50 | = | 5.21
N.N.[Cl][Pt][Cl] [Cisplatin] | pIC50 | < | 5.30
NC(=O)NO [Hydroxyurea] | pIC50 | < | 5.30
Nc1nc(F)nc2c1ncn2[C@@H]1O[C@H](CO)[C@@H](O)[C@@H]1O | pIC50 | = | 7.14

* * *

Listed below: IC50 values for each entry.
- Tested on: KOPN8 cell line
- method description: cells
- Format: cell-based, human
- stated conditions: Homo sapiens, KOPN-8, 96 h
experimental readout: IC50

compound | experimental readout | result
COc1nc(N)nc2c1ncn2[C@@H]1O[C@H](CO)[C@@H](O)[C@@H]1O [Nelarabine] | IC50 | > 10 µM
Oc1ncc(N(CCCl)CCCl)c(O)n1 [Uracil mustard] | IC50 | 2.22 µM
CC[C@@]1(O)C(=O)OCc2c1cc1n(c2=O)Cc2cc3c(CN(C)C)c(O)ccc3nc2-1 [Topotecan] | IC50 | < 0.01 µM
CCCCCOC(=O)Nc1nc(=O)n([C@@H]2O[C@H](C)[C@@H](O)[C@H]2O)cc1F [Capecitabine] | IC50 | > 10 µM
O=c1[nH]c(=O)n([C@H]2C[C@H](O)[C@@H](CO)O2)cc1F [Floxuridine] | IC50 | > 5 µM
COc1c2occc2cc2ccc(=O)oc12 [Methoxsalen] | IC50 | > 5 µM
Nc1nc2[nH]cc(CCc3ccc(C(=O)N[C@@H](CCC(=O)O)C(=O)O)cc3)c2c(=O)[nH]1 [Pemetrexed] | IC50 | 0.158 µM
COc1cccc2c1C(=O)c1c(O)c3c(c(O)c1C2=O)C[C@@](O)(C(=O)CO)C[C@@H]3O[C@H]1C[C@H](N)[C@H](O)[C@H](C)O1 [Doxorubicin] | IC50 | < 0.01 µM
CN(C)c1nc(N(C)C)nc(N(C)C)n1 [Altretamine] | IC50 | > 10 µM
CS(=O)(=O)CCNCc1ccc(-c2ccc3ncnc(Nc4ccc(OCc5cccc(F)c5)c(Cl)c4)c3c2)o1 [Lapatinib] | IC50 | 5.2 µM
O=C(c1ccc(OCCN2CCCCC2)cc1)c1c(-c2ccc(O)cc2)sc2cc(O)ccc12 [Raloxifene] | IC50 | 8.3 µM
CC[C@]1(O)C[C@H]2CN(CCc3c([nH]c4ccccc34)[C@@](C(=O)OC)(c3cc4c(cc3OC)N(C=O)[C@H]3[C@@](O)(C(=O)OC)[C@H](OC(C)=O)[C@]5(CC)C=CCN6CC[C@]43[C@@H]65)C2)C1 [Vincristine] | IC50 | < 0.01 µM
CC(C)(C#N)c1cc(Cn2cncn2)cc(C(C)(C)C#N)c1 [Anastrozole] | IC50 | > 10 µM
COc1cccc2c1C(=O)c1c(O)c3c(c(O)c1C2=O)C[C@@](O)(C(C)=O)C[C@@H]3O[C@H]1C[C@H](N)[C@H](O)[C@H](C)O1 [Daunorubicin] | IC50 | < 0.005 µM
COc1cc([C@@H]2c3cc4c(cc3[C@@H](O[C@@H]3O[C@@H]5CO[C@@H](C)O[C@H]5[C@H](O)[C@H]3O)[C@H]3COC(=O)[C@H]23)OCO4)cc(OC)c1O [Etoposide] | IC50 | 0.0197 µM
CO[C@@]12[C@H](COC(N)=O)C3=C(C(=O)C(C)=C(N)C3=O)N1C[C@@H]1N[C@@H]12 [Mitomycin C] | IC50 | 0.0594 µM
CS(=O)(=O)OCCCCOS(C)(=O)=O [Busulfan] | IC50 | > 5 µM
N[C@@H](Cc1ccc(N(CCCl)CCCl)cc1)C(=O)O [Melphalan] | IC50 | 0.425 µM
O=P1(N(CCCl)CCCl)NCCCO1 (stereo not shown) [Cyclophosphamide] | IC50 | > 5 µM
O=C(O)CCCc1ccc(N(CCCl)CCCl)cc1 [Chlorambucil] | IC50 | 3.38 µM
NCC(=O)CCC(=O)O [Aminolevulinic acid] | IC50 | > 10 µM
C1CN1c1nc(N2CC2)nc(N2CC2)n1 [Triethylenemelamine] | IC50 | 0.197 µM
OC[C@H]1O[C@@H](n2cnc3c2NC=NC[C@H]3O)C[C@@H]1O [Pentostatin] | IC50 | > 5 µM
O=P1(NCCCl)OCCCN1CCCl (stereo not shown) [Ifosfamide] | IC50 | > 5 µM
CNNCc1ccc(C(=O)NC(C)C)cc1 [Procarbazine] | IC50 | > 5 µM
